- system-under-test: JMJD2E (Homo sapiens, UniProt B2RXH2)
- Sequence (B2RXH2 1-506): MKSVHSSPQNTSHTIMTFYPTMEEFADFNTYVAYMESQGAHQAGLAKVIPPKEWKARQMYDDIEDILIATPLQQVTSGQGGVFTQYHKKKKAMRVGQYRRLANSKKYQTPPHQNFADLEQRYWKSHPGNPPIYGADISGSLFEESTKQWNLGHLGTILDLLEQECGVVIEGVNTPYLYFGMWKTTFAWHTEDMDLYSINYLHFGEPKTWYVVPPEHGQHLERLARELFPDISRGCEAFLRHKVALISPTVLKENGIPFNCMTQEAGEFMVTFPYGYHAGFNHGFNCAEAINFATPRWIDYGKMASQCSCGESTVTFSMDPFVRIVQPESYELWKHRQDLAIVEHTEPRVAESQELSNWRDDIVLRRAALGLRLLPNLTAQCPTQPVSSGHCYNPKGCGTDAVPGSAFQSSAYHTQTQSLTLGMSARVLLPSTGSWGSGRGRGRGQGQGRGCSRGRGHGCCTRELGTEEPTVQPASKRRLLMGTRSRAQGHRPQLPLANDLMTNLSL
- assay-text: FDH-coupled spectrophotometric turnover assay of JMJD2E
- Format: biochemical
- measurement-conditions: read-out: JMJD2E IC50; FDH-coupled assay
quantity: IC50

[[record]]
molecule = "Nc1c(C(=O)O)ccnc1C(=O)O [Compound 50, 3-amino-2,4-PDCA]"
system_under_test = "JMJD2E (Homo sapiens, UniProt B2RXH2)"
quantity = "IC50"
measured_result = "~100 nM"

